system: HEK293T; assay: median enrichment of reporter reads in eGFP-reduced (low/intermediate) vs eGFP-high sorted cells (eGFP-extension fusion abundance) (ratio); higher = stronger loss of eGFP-fusion protein abundance (more destabilising extension)
assay.readout: median enrichment
Give a plain numeric answer without units written out.

Below are worked cases with known answers.
{"substance": "QIKLAVRNAKSC [RBMX]", "assay.readout": "median enrichment", "reported": 6.47}
{"substance": "LEIPGFSDGPI [SLC39A2]", "assay.readout": "median enrichment", "reported": 0.676}
{"substance": "LKKNPRKNKS [NME5]", "assay.readout": "median enrichment", "reported": 1.1}
{"substance": "QKQPQGSINNICQLNLLSSNAKKGEWRVQD [PAPOLA]", "assay.readout": "median enrichment", "reported": 2.06}
{"substance": "SPYPVPRCTNRWGPAPFLPGPHGPLSQEPRPLTSCPLEMVQHSGIYHPHLGPLQPPIKG [MYH14]", "assay.readout": "median enrichment", "reported": 5.6}
{"substance": "LSEQVNSRTGAEALPKMK [UVRAG]", "assay.readout": "median enrichment", "reported": 0.405}
{"substance": "WSLTRSLISRSTCVFIPPGN [FLT1]", "assay.readout": "median enrichment", "reported": 4.28}
{"substance": "CLHW [RIMKLB]", "assay.readout": "median enrichment", "reported": 3.73}
{"substance": "KKKKKQQVMELHILVTQWTIIGSHWKSGKNPWRLSFSDILPNALLSRIFVSFCLIFWGVFVVVGLFFVFFF [PPP1R12A]", "assay.readout": "median enrichment", "reported": 4.71}
{"substance": "QNTFLL [CFAP97]", "assay.readout": "median enrichment", "reported": 0.56}

median enrichment recorded for this substance, EVGQPLMSWFLQLSFPLGCIEGFS [RAG1] , is 6.39

median enrichment recorded for this substance, EEEEEEEEE [Glu09] , is 0.433

median enrichment recorded for this substance, LGGVWGHPS [ZG16B] , is 2.14

median enrichment recorded for this substance, YPAALPGGGGIKRPESPGCPRRDANHPVLSTGPSSLFHPHFC [E2F7] , is 6.7

median enrichment recorded for this substance, WSSSSSFIGLSGC [EDARADD] , is 1.2

median enrichment recorded for this substance, WGNKRKLSPESATSAPSIFSINALYQPQSSLFKLTPC [ZNF474] , is 8.63

median enrichment recorded for this substance, SWPPASASSYLLPGSPPRRPPYRERGFTR [OGG1] , is 6.11

median enrichment recorded for this substance, YNYLSPL [FAM104B] , is 2.29

median enrichment recorded for this substance, CGLGWAGARRAAGWPLGGQDGTVGTEVGGRGPSGLN [TNFRSF8] , is 5.21

median enrichment recorded for this substance, EGPPCICT [PDK2] , is 1.79

---

tested on: HEK293T; assay: median enrichment of reporter reads in eGFP-reduced (low/intermediate) vs eGFP-high sorted cells (eGFP-extension fusion abundance) (ratio); higher = stronger loss of eGFP-fusion protein abundance (more destabilising extension)
Would you please tag the item true (1) when its median enrichment is 4 or above, and false (0) when it is below?

Request: Could you tell me if the measured median enrichment of RCLPRAVDARAPVHTHTSTLTSPQCCASSTRFYSSQNCILNAQETFKLFMKRCVYREEEGANAVRIMFRL [UBE2QL1] reaches 4 or more?
Result: true (1)

Request: Could you tell me if the measured median enrichment of QRLMQERCEGLRAGDCAILKPPLDLRTPRVGTSRVVGQPGSLYCGFSEA [MEIS3] reaches 4 or more?
Result: true (1)

Request: Could you tell me if the measured median enrichment of QVISQSIYVLSNM [PSMA1] reaches 4 or more?
Result: true (1)

Request: Could you tell me if the measured median enrichment of RYCSTQPNL [BRPF1] reaches 4 or more?
Result: false (0)

Request: Could you tell me if the measured median enrichment of LPSTCPWGQEHPRPQKRERKGQKKEEKKNVQKDFRSSHSYF [TOB2] reaches 4 or more?
Result: false (0)

---

test system: HEK293T; assay: median enrichment of reporter reads in eGFP-reduced (low/intermediate) vs eGFP-high sorted cells (eGFP-extension fusion abundance) (ratio); higher = stronger loss of eGFP-fusion protein abundance (more destabilising extension)
Would you please tag the item criterion met when its median enrichment is 8 or above, and criterion not met when it is below?

{"substance": "SPQDQGKEDGRTGAKLVGGRGGGGRDDRPWMCPQGPRSEVSTVLPARAPVPPLAATPSPIISFAPRLLRGAPVLAPAPTSAPD [FOXP3]", "cat": "criterion not met"}
{"substance": "QWPSDDS [COL15A1]", "cat": "criterion not met"}
{"substance": "RMLEAFIHL [ZNF248]", "cat": "criterion not met"}

Request: Could you tell me if the measured median enrichment of GEVLPGPRRGDREHHCHPGEPGAGAPGACRLRQGRCGRDDAALGCGVGSPKHPRQQPRPWPHQWHRGAPATGWPSGQPEHQGH [DECR2] reaches 8 or more?
Result: criterion not met

Request: Could you tell me if the measured median enrichment of SQREENILVLFFFQKKRKIKEIYPLLPLHLSQ [SLITRK3] reaches 8 or more?
Result: criterion met

Request: Could you tell me if the measured median enrichment of QFLGLFEYSIPMGIYFLSCH [HHIP] reaches 8 or more?
Result: criterion met

Request: Could you tell me if the measured median enrichment of WQAAGAWGLHWLPPAP [HNF4A] reaches 8 or more?
Result: criterion not met

Request: Could you tell me if the measured median enrichment of YPAHLASLFSF [ECD] reaches 8 or more?
Result: criterion not met

Request: Could you tell me if the measured median enrichment of SQAGMSPGSLARVGPQ [TXN2] reaches 8 or more?
Result: criterion not met

Request: Could you tell me if the measured median enrichment of GSPLCLGLLLPREFSPLTYPHLSGLTGRNHCTTERGWDGPASCLWEKTSCLGRGLCLVKVPTGNP [ITGAX] reaches 8 or more?
Result: criterion not met

Request: Could you tell me if the measured median enrichment of EVHTVCHRMAHVIAHFCVDMVLV [ATP5IF1] reaches 8 or more?
Result: criterion met

---

tested on: HEK293T; assay: median enrichment of reporter reads in eGFP-reduced (low/intermediate) vs eGFP-high sorted cells (eGFP-extension fusion abundance) (ratio); higher = stronger loss of eGFP-fusion protein abundance (more destabilising extension)
Would you please tag the item met when its median enrichment is 4 or above, and not met when it is below?

Before answering, review these 5 worked examples.
{"sequence.input": "LRWLACWAWGLLTDSMEQGWAVCAHAQHALRGGGGGRGFLMSVQELKVSGVLPRICPTPHDKTELCNKQYQFILAVGFCFFSS [WDR6]", "cat": "met"}
{"sequence.input": "QRLDMLSPNEPLSSPGEGR [ISX]", "cat": "not met"}
{"sequence.input": "WWWRHAQWMILLLPATSTSRNESLGGCQELVLAPPPP [MAP4K1]", "cat": "met"}
{"sequence.input": "WQKSKGHPVPGRLSGICSPVPGTKSSTAAVKKHALESLEHEEKQGLVHMFFGISL [IL1RAPL1]", "cat": "met"}
{"sequence.input": "QVLSPNNFFLSEVKGLKISWK [ENOSF1]", "cat": "met"}

Request: Could you tell me if the measured median enrichment of SGLQGRQLSFV [SYT17] reaches 4 or more?
Result: not met

Request: Could you tell me if the measured median enrichment of QNILCTALVISDLD [MALSU1] reaches 4 or more?
Result: met

Request: Could you tell me if the measured median enrichment of SAPYWPAGPPPPAAGQLPNGPFQGLTLHPFSVDFLARAPSGGITDLMTTLALLPCRVQVLSPHFHLPAPRGPFPFMGLPPSDA [PCDH1] reaches 4 or more?
Result: not met

Request: Could you tell me if the measured median enrichment of GGGGGGGGG [Gly09] reaches 4 or more?
Result: not met

Request: Could you tell me if the measured median enrichment of SGSVTRCSLIPADLTGPLANPTSNQKCSSVESETGKWLLQDYSLLQKRNQIHEWKSLCKFNFITHNMYYFF [PUM1] reaches 4 or more?
Result: met

---

Documented median enrichment across a set of substances
test system: HEK293T; assay: median enrichment of reporter reads in eGFP-reduced (low/intermediate) vs eGFP-high sorted cells (eGFP-extension fusion abundance) (ratio); higher = stronger loss of eGFP-fusion protein abundance (more destabilising extension);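 also: lentiviral eGFP-IRES-mCherry reporter pool sorted by FACS 96 h post-transduction, gated on mCherry-high cells, Illumina read counts normalized per million, median across four biological replicates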
Give a plain numeric answer without units written out.

{"substance": "YISHQKLRQEKQK [RASSF8]", "median enrichment": 3.3}
{"substance": "WGCSGNSHSAPIRAPCRGPSVVSD [TBC1D14]", "median enrichment": 2.19}
{"substance": "YEKHFGILSIMILCYRHRECCIQ [FASLG]", "median enrichment": 3.75}
{"substance": "RNKKFWVLSS [RGCC]", "median enrichment": 1.68}
{"substance": "LYRSRWFFTALDIIPFYHPFITPKVCLIASEVYKVV [PLPPR5]", "median enrichment": 7.74}

median enrichment recorded for this substance, SPARRPSQRVTRPRGRTDSSDSPQ [EPS8L1] , is 0.338

median enrichment recorded for this substance, CEGQTPEEPLQ [CXCL12] , is 0.136

median enrichment recorded for this substance, LLRPGALGARP [APOBR] , is 9.86

median enrichment recorded for this substance, QKMTQKLEPTKLLTPC [ADGRL3] , is 1.01
